- target or system: Arginase-2, mitochondrial (Homo sapiens)
- Sequence (whole entry): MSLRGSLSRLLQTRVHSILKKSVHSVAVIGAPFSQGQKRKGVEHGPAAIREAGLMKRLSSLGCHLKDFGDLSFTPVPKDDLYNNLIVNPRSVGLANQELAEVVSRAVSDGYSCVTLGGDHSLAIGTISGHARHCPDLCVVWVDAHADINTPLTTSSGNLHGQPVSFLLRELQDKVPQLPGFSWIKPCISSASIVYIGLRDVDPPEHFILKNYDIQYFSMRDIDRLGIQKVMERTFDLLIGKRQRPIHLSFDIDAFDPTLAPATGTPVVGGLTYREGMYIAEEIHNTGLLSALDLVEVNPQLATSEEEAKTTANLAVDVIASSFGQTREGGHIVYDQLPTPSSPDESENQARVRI
- protocol text: in vitro enzyme assay to detect the production of urea directly proportional to the activity of Arginase II; note: in the data most compounds retested in dose-response had high values
- Assay type: functional
- Set-up: scale not given: direction of the effect not stated beside the values
- details: 33.3 µM
measure: Percent Effect (%)
Numbers only here, please. The scale is %.

Asked: For the compound COc1ncccc1CNc1cc(N2CCCC2CO)ncn1 (stereo unspecified) , give its reported Percent Effect.
Given back: -8.54

Asked: Consider the compound CCn1nnc2c1C(COC)CN(Cc1ccsc1)C2 (stereo unspecified) and give its recorded Percent Effect.
Given back: -2.73

Asked: Provide measured Percent Effect value, entry: CS(=O)(=O)NCc1cnc2n1CCN(Cc1ccsc1)CC2
Given back: -18

Asked: Annotate the compound Cc1noc(C)c1CN(C)C(=O)NC1CCN(C2CC2)CC1 with its measured Percent Effect.
Given back: -0.82

Asked: Read the entry COc1ccc(-c2ccnc3c2C(=O)CCC3)cc1 and write its reported Percent Effect.
Given back: 0.885

Asked: Identify the reported Percent Effect for the following entry. CC(NC(=O)NCCCn1ccnc1)c1ccc2c(c1)OCCCO2 (stereo unspecified)
Given back: 5.36

Asked: Tell me its Percent Effect given c1ccc(-n2ncc(CNC3CCc4ncnn4C3)n2)cc1 (stereo unspecified) as the entry.
Given back: 4.51

Asked: Tell me its Percent Effect given Cc1cnn(CC(C)NCc2ccc(-n3cccn3)cc2)c1 (stereo unspecified) as the entry.
Given back: 0.645

Asked: Find the measured Percent Effect of Cc1nn(C)c(C)c1CNCc1ccc(N2CCOCC2)nc1 and report it.
Given back: -1.5

Asked: Retrieve Percent Effect measured for Cc1ccc(S(=O)(=O)N2C[C@@H]3C[C@@H](NC(=O)C(C)(C)C)[C@@H]3C2)cc1 and print it.
Given back: -3.48

Asked: Output measured Percent Effect for this item: CCc1noc(C(C)N(C)CC(=O)Nc2c(C)cccc2C)n1 (stereo unspecified)
Given back: 16.8

Asked: Determine from records and report Percent Effect for COCC(=O)N1CCC(c2nccn2CC2CC2)CC1
Given back: 8.57

Asked: State its Percent Effect: Cc1csc2ncc(-c3ccnc(N4CCN(C)CC4)n3)c(=O)n12
Given back: -0.444

Asked: Read off the recorded Percent Effect for CC(C)(N)CN1CCC(c2nnc(CN3CCCC3)n2C2CC2)CC1
Given back: 5.73

Asked: Tell me Percent Effect reported for Cc1cccc(C)c1OCCC(=O)N1CCC(c2nncn2C)CC1
Given back: -2.49

Asked: Determine from records and report Percent Effect for c1cc2n(n1)CC(CNCc1ccc(OC3CCCCC3)nc1)CN2 (stereo unspecified)
Given back: -1.78

---

Give Percent Effect for every item shown.
- target or system: Ubiquitin-activating enzyme e1, putative (Leishmania donovani (strain BPK282A1))
- protocol text: Leishmania donovani Ubiquitin Activating Enzyme (LdE1)
- Format: functional
- Design: scale not given: direction of the effect not stated beside the values
- details: 30 µM
Potency and affinity values are given separately.
Reply with just the number (in %).

Asked: Lab note: Ubiquitin-activating enzyme e1, putative (Leishmania donovani (strain BPK282A1)) assay, enter Percent Effect for Cn1ccnc1CN1CCCN(C(=O)c2ccc(Cl)o2)CC1 here
Given back: 0

Asked: # lookup: Ubiquitin-activating enzyme e1, putative (Leishmania donovani (strain BPK282A1)) Percent Effect, key = CC(NC1(CNC(=O)Cn2cccn2)CCOCC1)c1ccccc1 (centres undefined)
Given back: 13.5

Asked: With Ubiquitin-activating enzyme e1, putative (Leishmania donovani (strain BPK282A1)) as the test system, provide measured Percent Effect for this molecule: COc1c(CNCc2ccnc(N3CCCC3)c2)c(C)nn1C
Given back: 3.8

Asked: Jot down Percent Effect (Ubiquitin-activating enzyme e1, putative (Leishmania donovani (strain BPK282A1))) of CC(CN1CCOCC1)NC(=O)NCc1ccc(Cl)s1 (centres undefined) .
Given back: 10.5

Asked: Answer with Percent Effect of CN1CCC(Oc2ccc(NC(=O)c3cccc(Cl)c3)cc2)CC1 measured for Ubiquitin-activating enzyme e1, putative (Leishmania donovani (strain BPK282A1)).
Given back: 0

Asked: Find the measured Percent Effect of CO[C@H]1CCN(C(=O)Cc2ccccn2)[C@H]1Cc1ccncc1 with Ubiquitin-activating enzyme e1, putative (Leishmania donovani (strain BPK282A1)) as test system.
Given back: 16

Asked: Given CC1CCCN(Cc2coc(-c3cccc(F)c3)n2)C1 (centres undefined) , report its Percent Effect on Ubiquitin-activating enzyme e1, putative (Leishmania donovani (strain BPK282A1)).
Given back: 2.6

Asked: Report its Percent Effect with Ubiquitin-activating enzyme e1, putative (Leishmania donovani (strain BPK282A1)) as the test system: CCn1cnnc1CNC(=O)N1CCC(C(=O)NC)CC1
Given back: 5.33

Asked: Report value: Percent Effect, system: Ubiquitin-activating enzyme e1, putative (Leishmania donovani (strain BPK282A1)), molecule: Cc1ccc(C2COCCN2C(=O)c2ccc(N(C)C)cc2)o1 (centres undefined)
Given back: 10.7

Asked: Report measured Percent Effect on Ubiquitin-activating enzyme e1, putative (Leishmania donovani (strain BPK282A1)); entry: CC(NC(=O)N1CCC(OCc2ccccc2)CC1)c1nncn1C (centres undefined)
Given back: 5.33

Asked: Specify the recorded Percent Effect for CN(Cc1cccc(F)c1)C(=O)CN1CCCCC1Cn1cncn1 (centres undefined) , system: Ubiquitin-activating enzyme e1, putative (Leishmania donovani (strain BPK282A1)).
Given back: -2.6

Asked: Fetch value of Percent Effect on Ubiquitin-activating enzyme e1, putative (Leishmania donovani (strain BPK282A1)) for Cc1ncc2c(n1)CN(Cc1nnc(-c3occc3C)o1)CC2 .
Given back: 18.9

Asked: Provide Ubiquitin-activating enzyme e1, putative (Leishmania donovani (strain BPK282A1)) Percent Effect reading for COc1cccc(CN(C)Cc2cccc(C#N)c2)c1OC .
Given back: 10.8

Asked: Name the value of Percent Effect reported for CN1CC(c2ccccc2)CC12CCN(C(=O)c1ccc(F)cc1)CC2 (centres undefined) when tested on Ubiquitin-activating enzyme e1, putative (Leishmania donovani (strain BPK282A1)).
Given back: 0

Asked: Find the measured Percent Effect of O=C1NCC[C@]12CN(Cc1ccoc1)C[C@H]2c1ccccc1 with Ubiquitin-activating enzyme e1, putative (Leishmania donovani (strain BPK282A1)) as test system.
Given back: 15.6

Asked: Give Percent Effect for this entry on Ubiquitin-activating enzyme e1, putative (Leishmania donovani (strain BPK282A1)): Cc1cc(NC(=O)NCc2cccnc2OC(C)C)n(C)n1
Given back: 8.86

Asked: Provide the reported Percent Effect (system: Ubiquitin-activating enzyme e1, putative (Leishmania donovani (strain BPK282A1))) for CC(O)CN(CC(=O)NC(=O)NC1CC1)c1ccccc1 (centres undefined)
Given back: 15.6

Asked: Specify Percent Effect for Cn1ccnc1CN1CCN(Cc2noc(-c3ccccc3)n2)CC1 , system Ubiquitin-activating enzyme e1, putative (Leishmania donovani (strain BPK282A1)).
Given back: 10.7

Asked: Report its Percent Effect with Ubiquitin-activating enzyme e1, putative (Leishmania donovani (strain BPK282A1)) as the test system: Cc1cc(C)n(CC2CN(Cc3cscn3)CCO2)n1 (centres undefined)
Given back: 23.7

Asked: Jot down Percent Effect (Ubiquitin-activating enzyme e1, putative (Leishmania donovani (strain BPK282A1))) of NC(=O)CN1CCC(NC(=O)Nc2nccs2)CC1 .
Given back: 15.4

Asked: Provide the reported Percent Effect (system: Ubiquitin-activating enzyme e1, putative (Leishmania donovani (strain BPK282A1))) for CC(C)c1nc(CN(C)C2CCN(CCNS(C)(=O)=O)C2)no1 (centres undefined)
Given back: 15.6

Asked: Find the measured Percent Effect of CNCC(=O)N1CCC(c2ccnc(Nc3ccc(C)cn3)n2)C1 (centres undefined) with Ubiquitin-activating enzyme e1, putative (Leishmania donovani (strain BPK282A1)) as test system.
Given back: 17.6

Asked: Lab note: record Percent Effect of Cc1nnc(NC(=O)NC2CCOc3ccccc32)s1 (centres undefined) tested on Ubiquitin-activating enzyme e1, putative (Leishmania donovani (strain BPK282A1)).
Given back: 5.48

Asked: Fetch value of Percent Effect on Ubiquitin-activating enzyme e1, putative (Leishmania donovani (strain BPK282A1)) for Cc1nc(C)n(CC2CCCN(c3ncnc4c3CCC4)C2)n1 (centres undefined) .
Given back: 0

Asked: // fetch Percent Effect for O=C(c1cc(C2CC2)on1)N1CC[C@]2(C[C@H](Oc3cccnc3)CO2)C1 ; system: Ubiquitin-activating enzyme e1, putative (Leishmania donovani (strain BPK282A1))
Given back: 1.3

Asked: Specify Percent Effect for CCc1nnc(CNCC2CCN(CC(O)c3ccccc3)CC2)o1 (centres undefined) , system Ubiquitin-activating enzyme e1, putative (Leishmania donovani (strain BPK282A1)).
Given back: 19

Asked: Jot down Percent Effect (Ubiquitin-activating enzyme e1, putative (Leishmania donovani (strain BPK282A1))) of CC(C)c1noc(CN(Cc2cccs2)C2CC2)n1 .
Given back: -5.2

Asked: For Ubiquitin-activating enzyme e1, putative (Leishmania donovani (strain BPK282A1)), give Percent Effect of the listed molecule: CCn1nc(C)c2nnn(CC(=O)Nc3c(C)cccc3C)c(=O)c21
Given back: 17.3

Asked: Provide Percent Effect, tested on Ubiquitin-activating enzyme e1, putative (Leishmania donovani (strain BPK282A1)), for Cc1noc(C2CCN(C(=O)CN(C)c3ccc(Cl)cn3)CC2)n1 .
Given back: 12.8

Asked: Print Ubiquitin-activating enzyme e1, putative (Leishmania donovani (strain BPK282A1)) Percent Effect for CC(=O)NCCc1cc(N2CCN(C(C)=O)CC2)nc(C2CC2)n1 .
Given back: -6.76

Asked: Enter recorded Percent Effect with Ubiquitin-activating enzyme e1, putative (Leishmania donovani (strain BPK282A1)) for CC(C)c1cc(C(F)(F)F)n2nc(CCC(=O)O)nc2n1 here.
Given back: 14.7

Asked: Report value: Percent Effect, system: Ubiquitin-activating enzyme e1, putative (Leishmania donovani (strain BPK282A1)), molecule: COc1cccc(-c2noc(C3CCN(Cc4cn(C)nc4C)C3)n2)c1 (centres undefined)
Given back: 14.7

Asked: Please report the measured Percent Effect for N#Cc1c(C2CC2)cc(-c2ccc(O)cc2)nc1N tested on Ubiquitin-activating enzyme e1, putative (Leishmania donovani (strain BPK282A1)).
Given back: 2.7

Asked: Please report the measured Percent Effect for Cc1cccnc1C(=O)N1CCCC(c2[nH]ncc2S(C)(=O)=O)C1 (centres undefined) tested on Ubiquitin-activating enzyme e1, putative (Leishmania donovani (strain BPK282A1)).
Given back: 4

Asked: Fill in: Percent Effect on Ubiquitin-activating enzyme e1, putative (Leishmania donovani (strain BPK282A1)), entry COc1cc(C(=O)N2CCCS2(=O)=O)cc(Cl)c1OC
Given back: 24

Asked: Recall the reported Percent Effect of CCc1nc(C2CCCN2CC(=O)Nc2c(C)n[nH]c2C)no1 (centres undefined) when tested on Ubiquitin-activating enzyme e1, putative (Leishmania donovani (strain BPK282A1)).
Given back: -2.6

Asked: Report Percent Effect from Ubiquitin-activating enzyme e1, putative (Leishmania donovani (strain BPK282A1)) testing of Cc1nn(CCn2ccnc2-c2cc3n(n2)CCCNC3)c(C)c1Cl
Given back: 21.3

Asked: Specify Percent Effect for c1ccc(OCc2ccncc2)c(CNC2CCc3ncnn3C2)c1 (centres undefined) , system Ubiquitin-activating enzyme e1, putative (Leishmania donovani (strain BPK282A1)).
Given back: 17.9

Asked: State Percent Effect on Ubiquitin-activating enzyme e1, putative (Leishmania donovani (strain BPK282A1)). Entry: CC(=O)NCC(=O)N1CCN(CC2CC2)c2ncccc2C1
Given back: 8

The reported numbers originate from ChEMBL document CHEMBL3988442.
